Molecular target: human 11beta-HSD1 (Homo sapiens, UniProt P28845)
Sequence (P28845 whole entry): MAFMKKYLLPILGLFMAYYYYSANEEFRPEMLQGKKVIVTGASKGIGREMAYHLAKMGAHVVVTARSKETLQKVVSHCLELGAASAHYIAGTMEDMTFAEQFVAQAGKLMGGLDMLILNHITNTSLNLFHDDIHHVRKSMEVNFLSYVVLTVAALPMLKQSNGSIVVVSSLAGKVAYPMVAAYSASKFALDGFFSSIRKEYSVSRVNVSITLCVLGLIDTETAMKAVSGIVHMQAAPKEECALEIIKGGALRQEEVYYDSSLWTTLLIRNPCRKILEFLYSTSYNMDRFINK
The threshold is 40 pM. Values of IC50 beneath it are tagged Met; values meeting or exceeding it are tagged Not met.

These recorded examples may help you get a feel for the data.
Cc1c(-c2cc3c(nn2)C2CCC3C23CC3)cnn1C(C)(C)C (stereo not drawn) [Example 23]: Not met
CC(C)(C)c1cc2c(nn1)C1CCC2CC1 [Example 10]: Met
Fc1ccc(-c2cc3c(nn2)C2CCC3C23CC3)c(C(F)(F)F)c1 (stereo not drawn) [Example 19]: Met
CC1(Cc2cc3c(nn2)[C@H]2CC[C@@H]3C2)CC1 (racemic) [Example 18]: Met
Cc1c(-c2cc3c(nn2)C2CCC3C23CC3)cnn1-c1ccccc1 (stereo not drawn) [Example 20]: Not met

Now look at this one.
Exercise: Does the reported IC50 of CC(C)(C)Cc1cc2c(nn1)C1CCC2CC1 [Example 9] stay below 40 pM?
Key: Met

###

Target: human 11beta-HSD1 (Homo sapiens)
parameter: pIC50
# pIC50 = -log10(concentration in molar units)

# annotated cases, reported pIC50 shown
CC(C)(C)Cc1cc2c(nn1)C1CCC2C12CCCC2 (centres unmarked): 12.00
CC1(Cc2cc3c(nn2)C2CCC3CC2)CC1: 11.22
CC(C)(C)Cc1cc2c(nn1)C1CCC2C12CC2 (centres unmarked) [Example 1]: 11.52
CC1(Cc2cc3c(nn2)[C@H]2CC[C@@H]3C2(C)C)CC1 (racemic): 12.00

Exercise: Name the recorded pIC50 of FC(F)(F)c1ccc(Cl)cc1-c1cc2c(nn1)C1CCC2C12CC2 (centres unmarked) , assay system human 11beta-HSD1 (Homo sapiens).
Key: 10.40

Exercise: Name the recorded pIC50 of CC1(c2cc3c(nn2)C2CCC3C23CCCC3)CC1 (centres unmarked) , assay system human 11beta-HSD1 (Homo sapiens).
Key: 11.70

Exercise: Name the recorded pIC50 of Fc1ccc(-c2cc3c(nn2)C2CCC3C23CC3)c(Cl)c1 (centres unmarked) , assay system human 11beta-HSD1 (Homo sapiens).
Key: 11.15

Exercise: Name the recorded pIC50 of CC(C)(C)c1cc2c(nn1)C1CCC2C12CC2 (single isomer, unassigned) , assay system human 11beta-HSD1 (Homo sapiens).
Key: 10.96

###

Molecular target: human 11beta-HSD1 (Homo sapiens, UniProt P28845)
parameter: pIC50
# pIC50 = -log10(concentration in molar units)

# annotated cases, reported pIC50 shown
Cc1c(-c2cc3c(nn2)C2CCC3C23CCCC3)cnn1-c1ccccc1 (stereo not drawn) [Example 30]: 10.21
CC(C)(C)Cc1cc2c(nn1)C1CCC2C12CC2 (single isomer, unassigned) [Example 1b]: 12.00

# ---- query compound ----
Exercise: Name the recorded pIC50 of Cc1ccccc1-c1cc2c(nn1)C1CCC2C12CCCC2 (stereo not drawn) [Example 29] , assay system human 11beta-HSD1 (Homo sapiens, UniProt P28845).
Key: 12.00
